Target: T1, human GIP receptor (human, UniProt P48546 22-466)
T1 construct: whole, on cells; also called hGIPR; human glucose-dependent insulinotropic polypeptide receptor
T1 sequence (looked up): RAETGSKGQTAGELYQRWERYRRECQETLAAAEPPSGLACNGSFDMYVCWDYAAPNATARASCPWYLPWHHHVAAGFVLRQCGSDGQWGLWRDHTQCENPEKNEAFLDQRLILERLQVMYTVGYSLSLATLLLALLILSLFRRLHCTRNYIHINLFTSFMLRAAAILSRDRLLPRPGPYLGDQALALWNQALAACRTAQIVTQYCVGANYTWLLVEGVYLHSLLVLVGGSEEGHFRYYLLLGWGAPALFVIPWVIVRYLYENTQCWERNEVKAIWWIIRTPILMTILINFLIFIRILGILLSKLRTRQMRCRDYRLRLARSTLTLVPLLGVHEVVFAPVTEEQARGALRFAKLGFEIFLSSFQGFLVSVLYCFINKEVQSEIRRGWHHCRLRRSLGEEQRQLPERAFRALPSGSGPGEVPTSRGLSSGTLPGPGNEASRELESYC
Test: SPA competition vs [125I]-GIP, hGIPR membranes
*1 amine or outer side, *2 acyl side, *3 side chain or, on linkers, in order; H or OH if unused. Where no end group is shown, it is not given here. Side-chain parts run from the residue outwards. [ ]: non-standard residue; d: D form. The star is where a group is joined. Decanoyl(10-(4-HOOC-PhO)) = O=C(O)c1ccc(OCCCCCCCCCC(=O)*)cc1; αMePhe(2-F) = C[C@](N)(Cc1ccccc1F)C(=O)O; γGlu = O=C(O)[C@H](CCC(=O)[*:2])N[*:1]; αMeY = C[C@](N)(Cc1ccc(O)cc1)C(=O)O; αMeL = CC(C)C[C@](C)(N)C(=O)O; Orn = NCCC[C@H](N)C(=O)O; AEEA = NCCOCCOCC(=O)O; Aib = CC(C)(N)C(=O)O

binder	Ki [nM]
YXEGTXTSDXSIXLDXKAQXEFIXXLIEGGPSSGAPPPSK (Aib2, αMeF(2F)6, 4Pal10, αMeL13, Orn16, K17(Z1), Aib20, D-Glu24, αMeY25, K40(Z1), C-term NH2; Z1=AEEA2-(γ-Glu)-CO-(CH2)14-CH3)	0.0293
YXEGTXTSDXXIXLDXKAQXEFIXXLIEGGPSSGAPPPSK (Aib2, αMeF(2F)6, 4Pal10, Aib11, αMeL13, Orn16, K17(Z1), Aib20, D-Glu24, αMeY25, K40(Z1), C-term NH2; Z1=AEEA-(γ-Glu)-CO-(CH2)12-CO2H)	0.091
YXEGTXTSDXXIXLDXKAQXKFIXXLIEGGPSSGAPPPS (Aib2, αMeF(2F)6, 4Pal10, Aib11, αMeL13, Orn16, K17(Z1), Aib20, K21(Z1), D-Glu24, αMeY25, C-term NH2; Z1=AEEA-(γ-Glu)-(10-(4-carboxyphenoxy)decanoyl))	0.046
Y[Aib]EGT[αMePhe(2-F)]TSDV[Aib]I[αMeL]LD[Orn]QAQ[Aib]EFIK([AEEA-AEEA-γGlu-Decanoyl(10-(4-HOOC-PhO))])[αMeY]LIK([AEEA-AEEA-γGlu-Decanoyl(10-(4-HOOC-PhO))])GGPSSGAPPPS-NH2 [Y-Aib-EGT-αMeF(2F)-TSDV-Aib-I-αMeL-LD-Orn …]	0.0369
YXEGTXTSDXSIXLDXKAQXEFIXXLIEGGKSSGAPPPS (Aib2, αMeF(2F)6, 1Nal10, αMeL13, Orn16, K17(Z1), Aib20, D-Glu24, αMeY25, K31(Z1), C-term NH2; Z1=AEEA2-(γ-Glu)-CO-(CH2)12-CO2H)	0.152
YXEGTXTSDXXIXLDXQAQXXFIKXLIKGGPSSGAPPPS (Aib2, αMeF(2F)6, 4Pal10, Aib11, αMeL13, Orn16, Aib20, Orn21, K24(Z1), αMeY25, K28(Z1), C-term NH2; Z1=PEG5-(γ-Glu)-(10-(4-carboxyphenoxy)decanoyl))	0.0387
